test-system: FGD-Noca (FSD-Noca) (Nocardioidaceae bacterium Broad-1)
Construct: full-length, codon-optimised, expressed in E. coli TOP10 (pBAD) as native protein, no SUMO; purified by anion exchange
Sequence (E9V3D1 1-334): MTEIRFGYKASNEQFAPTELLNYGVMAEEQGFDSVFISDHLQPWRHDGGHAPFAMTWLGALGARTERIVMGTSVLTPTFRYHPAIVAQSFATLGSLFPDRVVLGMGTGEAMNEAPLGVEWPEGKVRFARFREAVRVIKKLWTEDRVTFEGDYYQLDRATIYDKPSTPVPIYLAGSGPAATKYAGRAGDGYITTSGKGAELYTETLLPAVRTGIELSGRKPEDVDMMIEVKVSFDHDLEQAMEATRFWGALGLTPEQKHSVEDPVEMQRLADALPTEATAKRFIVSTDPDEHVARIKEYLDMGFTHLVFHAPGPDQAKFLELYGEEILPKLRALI
assay-name: fluorescence quenching of FMN (ex […] nm, em […] nm), one-site fit
condition: read-out: FGD-Noca (FSD-Noca) / kcat [s^-1]
endpoint-name: Kd

Please report Kd for the following compound: Cc1cc2nc3c(=O)[nH]c(=O)nc-3n(C[C@H](O)[C@H](O)[C@H](O)COP(=O)(O)O)c2cc1C [FMN] > 150 µM

* * *

test-system: AncD1
assay-name: fluorescence quenching of FMN (ex […] nm, em […] nm), one-site fit
condition: 0.1 µM cofactor, 25 °C; apparent KD; read-out: FGD-Noca (FSD-Noca) / kcat [s^-1]
endpoint-name: Kd

Please report Kd for the following compound: Cc1cc2nc3c(=O)[nH]c(=O)nc-3n(C[C@H](O)[C@H](O)[C@H](O)COP(=O)(O)O)c2cc1C [FMN] > 150 µM
